Reference for the values: patent US20200109126A1

Study Target: humanDOR (Homo sapiens)
Assay Text: Receptor binding with [3H]diprenorphine at human DOR
Experimental Parameters: binding affinity Ki hDOR, PZM analogs; (n) = number of independent experiments
Reported Property: Ki (nM)
State just the number; it will be interpreted in nM.

Value wanted: Ki (humanDOR (Homo sapiens)) of entry CN(CCCl)C(CNC(=O)NCCc1ccccc1)Cc1ccc(O)cc1 (stereo not shown) 360

----------
Study Target: hKOR (Homo sapiens)
Sequence (P41145 whole entry): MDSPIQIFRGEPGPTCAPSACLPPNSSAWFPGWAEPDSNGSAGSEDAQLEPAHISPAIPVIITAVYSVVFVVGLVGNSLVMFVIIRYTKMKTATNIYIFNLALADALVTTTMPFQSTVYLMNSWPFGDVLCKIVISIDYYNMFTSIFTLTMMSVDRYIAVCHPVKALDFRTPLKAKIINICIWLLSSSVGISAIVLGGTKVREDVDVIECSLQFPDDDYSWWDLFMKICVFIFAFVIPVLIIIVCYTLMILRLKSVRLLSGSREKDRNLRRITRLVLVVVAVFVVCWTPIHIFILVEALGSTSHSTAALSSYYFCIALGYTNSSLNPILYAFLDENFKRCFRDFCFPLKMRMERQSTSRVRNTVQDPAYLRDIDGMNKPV
Assay Text: Receptor binding with [3H]diprenorphine at hKOR
Experimental Parameters: ± SD (two experiments) or SEM; (n) experiments; read-out: hKOR [3H]dyprenorphine Ki
# note: exactly 70 nM is not below, so it is class 0; use class 1 for Ki strictly under it

Dear reviewer, please state whether CN(C)[C@H](CNC(=O)NC(C)(C)Cc1ccccc1)Cc1ccc(O)cc1 [DD 33L] has Ki strictly beneath 70 nM. class 0

Dear reviewer, please state whether C[C@H](Cc1ccccc1)NC(=O)NC[C@H](Cc1ccc(O)cc1)N(C)C [DD 61L-A] has Ki strictly beneath 70 nM. class 1

Dear reviewer, please state whether CN(C)[C@H](CNC(=O)NC(C)(C)Cc1ccsc1)Cc1cccc(O)c1 [DD 46L] has Ki strictly beneath 70 nM. class 1

Dear reviewer, please state whether CC(Cc1ccsc1)NC(=O)NCC(Cc1ccc(O)cc1)N(C)C (single isomer, unassigned) [BD 122LR] has Ki strictly beneath 70 nM. class 0

Dear reviewer, please state whether CN(C)[C@H](CNC(=O)NCCc1ccsc1)Cc1ccc(O)cc1 [DD 16] has Ki strictly beneath 70 nM. class 0

Dear reviewer, please state whether C[C@@H](Cc1ccsc1)NC(=O)NC[C@H](Cc1ccccc1)N(C)C [BD 127LS] has Ki strictly beneath 70 nM. class 0

Dear reviewer, please state whether CC(Cc1ccsc1)NC(=O)NCC(Cc1ccccc1)N(C)C (single isomer, unassigned) [BD 127LR] has Ki strictly beneath 70 nM. class 0

Dear reviewer, please state whether CN(C)[C@H](CNC(=O)NC(C)(C)Cc1ccsc1)Cc1ccc(O)cc1 [DD 32L] has Ki strictly beneath 70 nM. class 1

Dear reviewer, please state whether C[C@@H](Cc1ccccc1)NC(=O)NC[C@H](Cc1ccc(O)cc1)N(C)C [DD 61L-B] has Ki strictly beneath 70 nM. class 1

Dear reviewer, please state whether CC(Cc1ccsc1)NC(=O)NCC(Cc1ccccc1)N(C)C (single isomer, unassigned) [BD 127DR] has Ki strictly beneath 70 nM. class 0

Dear reviewer, please state whether CN(C)[C@H](CNC(=O)NC1Cc2ccccc2C1)Cc1ccc(O)cc1 [DD 57L] has Ki strictly beneath 70 nM. class 1

Dear reviewer, please state whether CC(Cc1ccsc1)NC(=O)NCC(Cc1ccccc1)N(C)C (single isomer, unassigned) [BD 127DS] has Ki strictly beneath 70 nM. class 0

Dear reviewer, please state whether Cc1cc(O)cc(C)c1C[C@@H](CNC(=O)N[C@H](C)Cc1ccsc1)N(C)C [BD 131LR] has Ki strictly beneath 70 nM. class 1

Dear reviewer, please state whether C[C@H](NC(=O)NC[C@H](Cc1ccc(O)cc1)N(C)C)c1ccccc1 [DD 53LS] has Ki strictly beneath 70 nM. class 1

Dear reviewer, please state whether C[C@@H](Cc1ccsc1)NC(=O)NC[C@H](Cc1cccc(O)c1)N(C)C [DD 47LS] has Ki strictly beneath 70 nM. class 1

Dear reviewer, please state whether CC(Cc1ccsc1)NC(=O)NCC(Cc1ccc(O)cc1)N(C)C (single isomer, unassigned) [BD 122DS] has Ki strictly beneath 70 nM. class 0

Dear reviewer, please state whether CC(Cc1ccsc1)NC(=O)NCC(Cc1ccc(O)cc1)N(C)C (single isomer, unassigned) [BD 122DR] has Ki strictly beneath 70 nM. class 0

Dear reviewer, please state whether Cc1cc(O)cc(C)c1C[C@@H](CNC(=O)N[C@@H](C)Cc1ccsc1)N(C)C [BD 131LS] has Ki strictly beneath 70 nM. class 1

----------
Study Target: hKOR (Homo sapiens)
Assay Text: Receptor binding with [3H]diprenorphine at hKOR
Experimental Parameters: PZM analogs; (n) = number of independent experiments; read-out: binding affinity Ki hKOR
Would you kindly list pKi for each of these compounds?
Entry type: numeric. Quantity: pKi, the -log10 of concentration in molar units.

Value wanted: pKi (hKOR (Homo sapiens)) of entry Cc1cc(O)cc(C)c1C[C@@H](CNC(=O)N[C@@H](C)Cc1ccsc1)N(C)C [drawing 538] 8.19

Value wanted: pKi (hKOR (Homo sapiens)) of entry C[C@@H](Cc1csc2ccccc12)NC(=O)NC[C@H](Cc1ccc(O)cc1)N(C)C [drawing 521] 7.66

Value wanted: pKi (hKOR (Homo sapiens)) of entry CN(C)C(CNC(=O)NCCc1cccc(F)c1)Cc1ccc(O)cc1 (stereo not drawn) 6.77

Value wanted: pKi (hKOR (Homo sapiens)) of entry CN(C)[C@H](CNC(=O)NCCN1C(=O)C=CC1=O)Cc1ccc(O)cc1 6.22

Value wanted: pKi (hKOR (Homo sapiens)) of entry C=CCN(C[C@H](Cc1ccccc1)N(C)C)C(=O)N[C@@H](C)Cc1ccsc1 5.77

Value wanted: pKi (hKOR (Homo sapiens)) of entry C[C@@H](Cc1ccsc1)NC(=O)NC[C@H](Cc1cccc(O)c1)N(C)C [drawing 531] 7.34

Value wanted: pKi (hKOR (Homo sapiens)) of entry Cc1cc(O)cc(C)c1C[C@@H](CNC(=O)NCCc1ccsc1)N(C)C 7.57

Value wanted: pKi (hKOR (Homo sapiens)) of entry C[C@H](NC(=O)NC[C@H](Cc1ccc(O)cc1)N(C)C)c1cccc2ccccc12 [drawing 524] 7.13

Value wanted: pKi (hKOR (Homo sapiens)) of entry CN[C@H](CNC(=O)N[C@@H](C)Cc1ccsc1)Cc1ccc(O)cc1 6.62

----------
Study Target: hMOR (Homo sapiens, UniProt P35372)
Sequence (P35372 whole entry): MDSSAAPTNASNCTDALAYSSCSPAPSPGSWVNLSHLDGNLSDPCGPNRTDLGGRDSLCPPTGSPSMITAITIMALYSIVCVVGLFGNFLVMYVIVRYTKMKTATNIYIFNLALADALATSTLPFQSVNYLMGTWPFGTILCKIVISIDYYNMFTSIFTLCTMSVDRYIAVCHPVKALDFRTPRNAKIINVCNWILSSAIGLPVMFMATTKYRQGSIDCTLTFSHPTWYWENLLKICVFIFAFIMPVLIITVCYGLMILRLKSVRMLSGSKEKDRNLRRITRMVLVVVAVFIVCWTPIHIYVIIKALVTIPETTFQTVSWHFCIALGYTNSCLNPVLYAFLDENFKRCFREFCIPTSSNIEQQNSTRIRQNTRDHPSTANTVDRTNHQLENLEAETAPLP
Assay Text: Receptor binding with [3H]diprenorphine at hMOR
Experimental Parameters: PZM analogs; (n) = number of independent experiments; read-out: binding affinity Ki hMOR
Reported Property: Ki (µM)
State just the number; it will be interpreted in µM.

Field request: Ki | item: CN(C)C(CNC(=O)NCCc1cccc(F)c1)Cc1ccc(O)cc1 (stereo not shown) 0.036

Field request: Ki | item: CN(C)[C@H](CNC(=O)NCCc1ccsc1)Cc1ccccc1 0.35

Field request: Ki | item: CN(C)C(CNC(=O)NCCc1ccc(F)cc1)Cc1ccc(O)cc1 (stereo not shown) 0.027

Field request: Ki | item: CN(C)[C@H](CNC(=O)NCCCCN1C(=O)C=CC1=O)Cc1ccc(O)cc1 1

Field request: Ki | item: C[C@@H](Cc1ccccc1)NC(=O)NC[C@H](Cc1ccc(O)cc1)N(C)C [drawing 517] 0.042

Field request: Ki | item: CN(C)[C@H](CNC(=O)NCCc1cn(CCSSCCN=[N+]=[N-])nn1)Cc1ccc(O)cc1 [drawing 545] 0.42

Field request: Ki | item: COc1ccc(CCNC(=O)NCC(Cc2ccc(O)cc2)N(C)C)cc1 (stereo not shown) 0.33

Field request: Ki | item: C[C@@H](Cc1ccsc1)NC(=O)NC[C@H](Cc1ccnc(O)c1)N(C)C 0.21

Field request: Ki | item: CN(C)[C@@H](CNC(=O)NCCc1ccsc1)Cc1ccc(O)cc1 1.5

Field request: Ki | item: CN(C)[C@H](CNC(=O)NC(C)(C)Cc1ccsc1)Cc1ccccc1 0.21

----------
Would you kindly list log10 Ki for each of these compounds?
Study Target: humanDOR (Homo sapiens, UniProt P41143)
Sequence (P41143 whole entry): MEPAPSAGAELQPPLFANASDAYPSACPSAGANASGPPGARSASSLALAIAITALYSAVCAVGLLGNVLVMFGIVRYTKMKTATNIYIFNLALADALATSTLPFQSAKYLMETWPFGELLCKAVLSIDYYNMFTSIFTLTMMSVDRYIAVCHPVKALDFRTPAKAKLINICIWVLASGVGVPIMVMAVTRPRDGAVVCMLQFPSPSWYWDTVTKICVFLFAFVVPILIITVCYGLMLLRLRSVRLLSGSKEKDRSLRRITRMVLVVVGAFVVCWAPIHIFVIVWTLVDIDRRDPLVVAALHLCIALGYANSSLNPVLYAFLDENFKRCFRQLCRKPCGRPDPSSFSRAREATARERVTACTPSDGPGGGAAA
Assay Text: Receptor binding with [3H]diprenorphine at human DOR
Experimental Parameters: ± SD (two experiments) or SEM; (n) experiments; read-out: humanDOR [3H]dyprenorphine Ki
Note: values are log10 of Ki expressed in nM.

Value wanted: log10 Ki (humanDOR (Homo sapiens, UniProt P41143)) of entry CN(C)[C@H](CNC(=O)NCCc1ccsc1)Cc1ccc(O)cc1 [DD 16] 2.52

Value wanted: log10 Ki (humanDOR (Homo sapiens, UniProt P41143)) of entry C[C@@H](Cc1ccsc1)NC(=O)NC[C@H](Cc1ccccc1)N(C)C [BD 127LS] 3.45

Value wanted: log10 Ki (humanDOR (Homo sapiens, UniProt P41143)) of entry CC(Cc1ccsc1)NC(=O)NCC(Cc1ccc(O)cc1)N(C)C (single isomer, unassigned) [BD 122LR] 1.94

Value wanted: log10 Ki (humanDOR (Homo sapiens, UniProt P41143)) of entry CN(C)[C@H](CNC(=O)NC(C)(C)Cc1ccsc1)Cc1ccc(O)cc1 [DD 32L] 2.81

Value wanted: log10 Ki (humanDOR (Homo sapiens, UniProt P41143)) of entry Cc1cc(O)cc(C)c1C[C@@H](CNC(=O)N[C@@H](C)Cc1ccsc1)N(C)C [BD 131LS] 1.93

Value wanted: log10 Ki (humanDOR (Homo sapiens, UniProt P41143)) of entry CC(Cc1ccsc1)NC(=O)NCC(Cc1ccccc1)N(C)C (single isomer, unassigned) [BD 127DR] 4.08

Value wanted: log10 Ki (humanDOR (Homo sapiens, UniProt P41143)) of entry Cc1cc(O)cc(C)c1C[C@@H](CNC(=O)N[C@H](C)Cc1ccsc1)N(C)C [BD 131LR] 1.23

Value wanted: log10 Ki (humanDOR (Homo sapiens, UniProt P41143)) of entry CC(Cc1ccsc1)NC(=O)NCC(Cc1ccccc1)N(C)C (single isomer, unassigned) [BD 127LR] 3.26
